- Tested on: UniProt:P68400
- Sequence (P68400 whole entry): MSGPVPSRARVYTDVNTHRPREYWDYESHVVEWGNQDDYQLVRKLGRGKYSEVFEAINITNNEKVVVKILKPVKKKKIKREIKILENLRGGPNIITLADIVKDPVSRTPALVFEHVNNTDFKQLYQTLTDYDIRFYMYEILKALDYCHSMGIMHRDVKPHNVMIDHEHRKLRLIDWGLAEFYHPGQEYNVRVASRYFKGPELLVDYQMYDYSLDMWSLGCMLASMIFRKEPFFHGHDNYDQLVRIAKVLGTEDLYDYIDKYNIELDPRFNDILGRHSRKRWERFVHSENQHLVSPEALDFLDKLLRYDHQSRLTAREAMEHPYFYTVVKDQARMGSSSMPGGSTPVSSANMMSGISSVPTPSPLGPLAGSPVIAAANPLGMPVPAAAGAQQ
- Experiment summary: ADP-Glo kinase assay, CK2 inhibition
- Assay type: biochemical
- Condition parameters: concentration-response; 10 μM ATP where stated; read-out: IC50 against CK2α
Parameter measured: IC50 (µM)
Respond with the bare value in µM.

# input molecule: `Cc1ccc(C(=O)Nc2c[nH]c(=O)[nH]c2=O)cc1C` ; wanted: its IC50
13
